// provenance: patent US20250109139A1

half-life for assorted molecules
Experiment: Pharmacokinetics in SD rats, single dose intragastric and intravenous
Format: in vivo
Conditions: male, rat, plasma, oral administration, 10 mg/kg, read-out: Elimination half-life t1/2 (converted)
Please reply with the bare figure in h and do not write the unit itself.

In [3]: df
Out[3]:
                                   molecule  result_type  observed_measurement
0  COc1cccc2c1cc1n2CCN(CCCCOc2ccc3ccc(=O)[nH]c3c2)C1 [I-C1]    half-life                  7.36
1  COc1cccc2c3c([nH]c12)CN(CC[C@H]1CC[C@H](NC(=O)N(C)C)CC1)CC3 [I-B7]    half-life                  5.12
2  COc1cccc2c1cc1n2CCN(CC[C@H]2CC[C@H](NC(=O)N(C)C)CC2)C1 [I-C7]    half-life                  8.54
3  COc1cccc2c3c(oc12)CN(CCCCOc1ccc2ccc(=O)[nH]c2c1)CC3 [I-A1]    half-life                  3.91
4  COc1cccc2c1cc1n2CCN(CCCCOc2ccc3c(c2)NC(=O)CC3)C1 [I-C2]    half-life                  4.09

Let us examine a further case.
Entry COc1cccc2c3c(oc12)CN(CC[C@H]1CC[C@H](NC(=O)N(C)C)CC1)CC3 [I-A12] has what half-life?
3.58

====

Target: UniProt P28223
Experiment: 5-HT2A receptor radioligand competition binding assay ([3H]-ketanserin)
Conditions: [3H]-ketanserin, 293T membranes; read-out: Ki
Result type: pKi
Reminder that pKi means the negative base-10 logarithm of the concentration expressed in mol/L.

>>> df
                            compound_string  observed_measurement
0  CCOc1cccc2c3c(oc12)CN(CCCCOc1ccc2ccc(=O)[nH]c2n1)CC3                  5.26

Give pKi (UniProt P28223) of the following molecule: COc1cccc2c3c([nH]c12)CN(CC[C@H]1CC[C@H](NC(=O)N(C)C)CC1)CC3
5.45

Give pKi (UniProt P28223) of the following molecule: COc1cccc2c3c(oc12)CN(CCCCOc1ccc2ccc(=O)[nH]c2c1)CC3
5.75

Give pKi (UniProt P28223) of the following molecule: COc1cccc2c3c(oc12)CN(CCCCOc1ccc2c(c1)NC(=O)CC2)CC3
5.96

====

Target: dopamine D2 receptors (Homo sapiens (Human), UniProt P14416)
Sequence (P14416 whole entry): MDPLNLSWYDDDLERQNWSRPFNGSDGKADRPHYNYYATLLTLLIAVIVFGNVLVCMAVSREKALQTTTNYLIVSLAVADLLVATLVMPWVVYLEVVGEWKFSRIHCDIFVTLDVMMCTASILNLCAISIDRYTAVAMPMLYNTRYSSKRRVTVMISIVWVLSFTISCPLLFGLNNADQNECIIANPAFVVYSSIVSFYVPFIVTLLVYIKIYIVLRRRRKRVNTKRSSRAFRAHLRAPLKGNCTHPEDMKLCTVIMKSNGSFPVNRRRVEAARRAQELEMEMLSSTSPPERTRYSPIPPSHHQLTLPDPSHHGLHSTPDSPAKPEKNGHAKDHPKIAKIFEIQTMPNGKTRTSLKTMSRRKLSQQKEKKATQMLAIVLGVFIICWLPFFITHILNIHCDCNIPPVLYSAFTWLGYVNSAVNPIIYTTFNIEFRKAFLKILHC
Test: Dopamine D2 receptor β-arrestin2 BRET (recruitment)
Format: cell-based
Conditions: relative to endogenous ligand dopamine, read-out: β-arrestin2 BRET Emax % ± SEM
Experimental: To examine the downstream G-protein signaling pathway mediated by dopamine D2 receptors, on the first day, a 6 cm culture dish was used for transfection with 1 μg of dopamine D2 receptors, 1 μg of Gαi1 containing C-terminal seaweed luciferase (Gαi1-Rluc), 1 μg of Gβ3, 1 μg of Gγ9 containing C-terminal green fluorescent protein (Gγ9-GFP) mixed with 16 μL of PEI. […] The machine readout value reflected the recruitment of β-arrestin2 to the membrane or the dissociation of G protein trimer. […]
Result type: Emax (%)
Please reply with the bare figure in % and do not write the unit itself.

Below, each entry is followed by its recorded Emax result.
>>> print(df.to_string())
                                   compound                                    target  observed_measurement
0  CCOc1cccc2c3c(oc12)CN(CCNC(=O)C1CCCCCC1)CC3 [I-A32]  dopamine D2 receptors (Homo sapiens (Human), UniProt P14416)                    12
1  CCOc1cccc2c3c(oc12)CN(CC[C@H]1CC[C@H](NC(=O)N(C)C)CC1)CC3 [I-A17]  dopamine D2 receptors (Homo sapiens (Human), UniProt P14416)                    29
2  CCOc1cccc2c3c(oc12)CN(CCCCc1ccc2ccc(=O)[nH]c2c1)CC3 [I-A25]  dopamine D2 receptors (Homo sapiens (Human), UniProt P14416)                    78
3  CCOc1cccc2c3c(oc12)CN(CCC1CC(NC(=O)N(C)C)C1)CC3 (stereo not drawn) [I-A34]  dopamine D2 receptors (Homo sapiens (Human), UniProt P14416)                    33
4  COc1cccc2c1cc1n2CCN(C/C=C/COc2ccc3ccc(=O)[nH]c3c2)C1 [I-C5]  dopamine D2 receptors (Homo sapiens (Human), UniProt P14416)                   127

Entry COc1cccc2c1nc1n2CCN(CCCOc2ccc3ccc(=O)[nH]c3c2)C1 [I-D3] has what Emax?
97

Entry CCOc1cccc2c3c(oc12)CN(CCNC(=O)c1ccccc1)CC3 [I-A35] has what Emax?
17

Entry CCOc1cccc2c3c(oc12)CN(CCCCn1ncc(=O)n(C)c1=O)CC3 [I-A43] has what Emax?
21

Entry COc1cccc2c3c(oc12)CN(CC[C@H]1CC[C@H](NC(=O)N(C)C)CC1)CC3 [I-A12] has what Emax?
108

====

Kp at 2 h for assorted compounds
Experiment: Brain permeability test, single intraperitoneal dose in C57 male mice
Assay type: in vivo
Settings: male, C57, mouse, brain/plasma, ip, intraperitoneal 5 mg/kg, 2.0 h, read-out: 2.0 h ratio (brain/plasma)
Answer as a number with no unit attached.

>>> df
                                   compound  observed_measurement
0  COc1cccc2c3c(oc12)CN(CC[C@H]1CC[C@H](NC(=O)N(C)C)CC1)CC3 [I-A12]                  2.26
1  COc1cccc2c3c([nH]c12)CN(CC[C@H]1CC[C@H](NC(=O)N(C)C)CC1)CC3 [I-B7]                 0.643
2  COc1cccc2c1cc1n2CCN(CCCCOc2ccc3ccc(=O)[nH]c3c2)C1 [I-C1]                 0.663

Entry COc1cccc2c1cc1n2CCN(CCCCOc2ccc3c(c2)NC(=O)CC3)C1 [I-C2] has what Kp at 2 h?
0.834

Entry COc1cccc2c1cc1n2CCN(CC[C@H]2CC[C@H](NC(=O)N(C)C)CC2)C1 [I-C7] has what Kp at 2 h?
2.67

====

log10(EC50) for assorted compounds
Biological target: dopamine D2 receptors (Homo sapiens (Human))
Test: Dopamine D2 receptor β-arrestin2 BRET (recruitment)
Assay type: cell-based
Settings: unit printed only in Cariprazine cell, read-out: β-arrestin2 BRET EC50
Values reflect log10 of reported EC50 (nM).

                            compound_string                                    target  observed_measurement
0  CCOc1cccc2c3c(oc12)CN(CCCCN1C(=O)CC(C)(C)CC1=O)CC3  dopamine D2 receptors (Homo sapiens (Human))                  1.40
1  CC(C)Oc1cccc2c3c(oc12)CN(CC[C@H]1CC[C@H](NC(=O)N(C)C)CC1)CC3  dopamine D2 receptors (Homo sapiens (Human))                  0.92
2  COc1cccc2c3c([nH]c12)CN(CC[C@H]1CC[C@H](NC(=O)N(C)C)CC1)CC3  dopamine D2 receptors (Homo sapiens (Human))                 -0.62
3  CCOc1cccc2c3c(oc12)CN(CCNC(=O)c1ccccc1)CC3  dopamine D2 receptors (Homo sapiens (Human))                  0.50
4  COc1cccc2c3c(oc12)CN(CCCCOc1ccc2ccc(=O)[nH]c2c1)CC3  dopamine D2 receptors (Homo sapiens (Human))                  1.44
5    CCOc1cccc2c3c(oc12)CN(CC1(O)CCCCC1)CC3  dopamine D2 receptors (Homo sapiens (Human))                  2.38

Entry CCOc1cccc2c3c(oc12)CN(CCc1ccc2ccc(=O)[nH]c2c1)CC3 has what log10(EC50)?
1.74

====

Experiment: Pharmacokinetics in SD rats, single dose intragastric and intravenous
Type: in vivo
Conditions: male, rat, plasma, intravenous injection, dose 10 mg/kg, read-out: Mean residence time MRT
Result type: MRT
Please answer using the number first and the unit second.

Entry COc1cccc2c1cc1n2CCN(CC[C@H]2CC[C@H](NC(=O)N(C)C)CC2)C1 [I-C7] has what MRT?
3.98 h

====

Target: 5-HT2A receptors (Homo sapiens (Human))
Sequence (P28223 whole entry): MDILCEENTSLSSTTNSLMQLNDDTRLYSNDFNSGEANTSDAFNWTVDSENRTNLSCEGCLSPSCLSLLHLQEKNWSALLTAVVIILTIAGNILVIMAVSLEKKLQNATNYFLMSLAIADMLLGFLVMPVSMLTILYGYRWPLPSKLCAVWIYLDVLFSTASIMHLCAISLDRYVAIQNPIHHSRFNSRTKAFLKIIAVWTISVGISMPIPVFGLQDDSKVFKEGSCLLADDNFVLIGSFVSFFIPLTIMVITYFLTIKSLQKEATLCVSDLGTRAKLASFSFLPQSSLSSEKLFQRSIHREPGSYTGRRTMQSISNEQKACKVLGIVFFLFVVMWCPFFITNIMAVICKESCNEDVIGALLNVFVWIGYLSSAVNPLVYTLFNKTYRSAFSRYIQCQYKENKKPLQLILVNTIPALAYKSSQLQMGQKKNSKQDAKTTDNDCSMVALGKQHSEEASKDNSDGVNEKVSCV
Assay: 5-HT2A receptor radioligand competition binding assay ([3H]-ketanserin)
Result type: Ki (nM)
Please reply with the bare figure in nM and do not write the unit itself.

Entry CCOc1cccc2c3c(oc12)CN(CCCCOc1ccc2ccc(=O)[nH]c2c1)CC3 has what Ki?
1320

====

Experiment: Pharmacokinetics in SD rats, single dose intragastric and intravenous
Assay type: in vivo
Details: male, rat, plasma, intravenous injection, 3 mg/kg, read-out: Peak drug concentration C0 or Cmax
Method: Testing of pharmacokinetic properties of compounds administered in a single dose to SD rats by intragastric administration and intravenous injection After the compound was administered in a single dose to male SD rats, blood samples were collected at different time points. The concentration of the compound in the plasma of the rats was determined by LC-MS/MS and the relevant pharmacokinetic parameters were calculated to investigate the pharmacokinetics of the compound in rats. […]
So basically: Cmax at 800 ng/mL or higher? That is Criterion met. Lower than 800 ng/mL? That is Criterion not met.

Answered examples (3):
In [3]: df
Out[3]:
                            compound_string           category
0  COc1cccc2c1cc1n2CCN(CCCCOc2ccc3c(c2)NC(=O)CC3)C1      Criterion met
1  COc1cccc2c3c(oc12)CN(CCCCOc1ccc2ccc(=O)[nH]c2c1)CC3      Criterion met
2  COc1cccc2c3c([nH]c12)CN(CC[C@H]1CC[C@H](NC(=O)N(C)C)CC1)CC3  Criterion not met

Consider the additional molecule presented here.
Dear colleague, could you confirm whether COc1cccc2c1cc1n2CCN(CCCCOc2ccc3ccc(=O)[nH]c3c2)C1 has Cmax at or above 800 ng/mL?
Criterion met
